system: Alopecurus myosuroides; test: Pre-emergence herbicidal action, ALOMY; format: in vivo; details: dosage 320 g/ha, scored visually after 3 weeks vs untreated controls
MEASURED_PARAMETER: herbicidal activity ALOMY

Some compounds with recorded herbicidal activity ALOMY:
# COMPOUND, ASSAY_SYSTEM, herbicidal activity ALOMY
data = [
    ("CCn1nnnc1NC(=O)c1ccc(C(F)F)c([S+]([O-])CC)c1F (centres unmarked)", "Alopecurus myosuroides", "100%"),
    ("Cn1nnnc1NC(=O)c1ccc(C(F)F)c(S(C)(=O)=O)c1F", "Alopecurus myosuroides", "90%"),
]

// next item, herbicidal activity ALOMY requested
[ask] Given Cn1nnnc1NC(=O)c1ccc(C(F)F)c([S+](C)[O-])c1Cl (centres unmarked) , respond with its herbicidal activity ALOMY.
[reply] 100%
